Assay: anti-His antibody binders, primary screen, artefact control for SMM control protein annotation, biochemical, small-molecule microarray, 635 nm fluorescence (AID 1128);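 also: score merges feature fluorescence with signal-to-noise for each printed compound spot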
Settings: anti-His Alexa647 antibody binding, higher = more signal
Items are presented alongside their recorded composite z-score.
Please state the value as a number alone, without comment.

CC(C)(C)OC(=O)CC[C@@]12N=C(c3ccc(OCCCO)cc3)O[C@@H]1c1ccccc1N(CCS(=O)(=O)c1ccccc1)C2=O; 2.03
C=CCNC(=O)[C@H]1[C@@H]2C(=O)O[C@@H](c3ccccc3)[C@@H](c3ccccc3)N2[C@@H](c2ccc(OCCO)cc2)[C@]12C(=O)Nc1ccc(C#CC3=CCCCC3)cc12; 0.354
[N-]=[N+]=Nc1ccccc1C[C@]1(C(=O)NCC(O)CO)N=C(c2ccc(OCCCO)cc2)O[C@H]1c1ccccc1N=[N+]=[N-] (some centres not stated); 1.58
COc1ccc(C(O)C2C=CC3C(=O)N(C)C(=O)C3N2N2CCCCC2)c2ccccc12 (configuration not stated); 1.4
[N-]=[N+]=Nc1ccccc1[C@H]1OC(c2ccc(OCCCO)cc2)=N[C@@]1(Cc1ccccc1)C(=O)O; 0.864

# composite z-score of CCCCCN1CC=CC23O[C@@H]4/C=C\CCCOC(=O)C4[C@H]2C(=O)N(C(CO)C(C)C)[C@@H]3C1=O (some centres not stated) = -0.208

Record CO[C@H]1O[C@H](CO)[C@@H](OC(=O)Nc2ccc(Br)cc2)[C@H](OC(=O)c2cc3ccccc3[nH]2)[C@H]1OC(=O)c1cc2ccccc2[nH]1 , field composite z-score: 1.69

---

Listed compounds paired with reported z-score
Biological target: NADPH oxidase 5 (Homo sapiens) (UniProt Q96PH1)
Sequence (Q96PH1 whole entry, looked up): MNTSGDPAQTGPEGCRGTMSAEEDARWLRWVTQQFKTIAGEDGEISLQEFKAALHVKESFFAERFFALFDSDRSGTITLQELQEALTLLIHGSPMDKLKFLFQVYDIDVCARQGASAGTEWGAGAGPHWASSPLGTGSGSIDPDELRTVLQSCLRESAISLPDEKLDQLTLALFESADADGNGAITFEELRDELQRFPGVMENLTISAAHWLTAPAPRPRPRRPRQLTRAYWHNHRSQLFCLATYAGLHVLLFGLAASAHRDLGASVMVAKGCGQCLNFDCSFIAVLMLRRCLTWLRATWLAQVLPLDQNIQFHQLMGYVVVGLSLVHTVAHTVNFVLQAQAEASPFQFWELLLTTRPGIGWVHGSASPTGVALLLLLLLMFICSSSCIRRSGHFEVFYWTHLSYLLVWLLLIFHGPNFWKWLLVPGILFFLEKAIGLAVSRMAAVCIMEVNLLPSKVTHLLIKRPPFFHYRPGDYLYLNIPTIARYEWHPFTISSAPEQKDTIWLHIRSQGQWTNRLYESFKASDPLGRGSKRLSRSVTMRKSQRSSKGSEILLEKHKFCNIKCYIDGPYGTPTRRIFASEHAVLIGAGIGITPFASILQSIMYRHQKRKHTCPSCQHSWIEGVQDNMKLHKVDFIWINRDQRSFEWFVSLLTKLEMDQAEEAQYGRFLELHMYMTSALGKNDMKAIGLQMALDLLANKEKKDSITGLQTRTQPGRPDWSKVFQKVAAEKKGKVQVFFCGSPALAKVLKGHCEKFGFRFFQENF
Experiment: NOX5-dependent H2O2 signal modulators, primary screen, NOX inhibitor project, cell-based, HEK293-NOX5, Amplex Red fluorescence (AID 1161)
Details: HEK293-NOX5, ionomycin, 45 min, higher = more signal

Previously resolved entries follow.
CCOC(=O)C[C@H]1[C@H](OC(=O)Cc2ccc3c(c2)OCO3)[C@@H](NC(=O)c2ccc(-c3ccccc3)cc2)c2cc(OCCCO)ccc2N1C(=O)c1ccc2ccccc2n1; -1.21
O=C1NC(=O)C2C1C=CC(C(O)c1ccccc1)N2Nc1ccc(Cl)cc1Cl (centres undefined); -2.51
COCCOC(=O)N1C(=O)[C@@]2(c3cc(C#Cc4ccc(OC)cc4)ccc31)[C@H](C(=O)N1CCCCCCC1)[C@H]1C(=O)O[C@H](c3ccccc3)[C@H](c3ccccc3)N1[C@@H]2c1ccc(OCCO)cc1; -0.169
C=CCOC(=O)[C@H]1[C@@H]2C(=O)O[C@@H](c3ccccc3)[C@@H](c3ccccc3)N2[C@@H](c2ccc(OCCOC(=O)[C@@H]3C[C@@H]4C(=O)N[C@@H](CCCC[N+](C)(C)C)C(=O)N4[C@@H]3c3ccc(O)cc3)cc2)[C@]12C(=O)Nc1ccccc12; 1.41
COc1ccc(CCNC(=O)[C@@]2(Sc3ccc(C)cc3)CC(=O)N(C3CCCCC3)[C@@H]2c2ccc(CO)cc2I)cc1; 2.1

What the record says about COc1cc2c(cc1O)C(C1CC1)N(Cc1cc3c(cc1Br)OCO3)CC2 (centres undefined) : z-score is -4.81

get_value(item= C=CCN(Cc1ccccc1)C(=O)C(c1cccs1)N(CCOCCO)C(=O)/C=C\C(=O)O (centres undefined) , readout=z-score) returns -0.659

The compound listed as C=C(CCCC)C(=O)CC[C@@H](OC(=O)c1cccnc1)c1ccc(CO)o1 has a reported z-score of -1.04

Form field z-score, entry CCOC(=O)C[C@H]1[C@H](OC(=O)c2cc3ccccc3oc2=O)[C@@H](NC(=O)Cc2ccc(OC)cc2)c2cc(OCCCO)ccc2N1C(=O)c1ccccc1 : -0.286

z-score reported for this compound C[C@@]1([C@@H](NC(=O)c2ccccc2)c2ccc(-c3ccccc3)cc2)C[C@H]1C1CCCCC1 : -0.782

Lab note: measured z-score of COCCCNC(=O)[C@@]1(Cc2ccccc2)N=C(c2ccc(OCCCO)cc2)O[C@H]1c1ccccc1 was 1.86

Item: O=C(NCc1ccc(F)cc1)[C@H]1C[C@H]2C(=O)N[C@@H](Cc3ccccc3)C(=O)N2[C@H]1c1ccc(O)cc1 | z-score: 0.965

Data point: COc1ccc([Si](C)(C)[C@@H]2[C@@H](CC(=O)N3Cc4ccccc4C[C@H]3CO)O[C@]3(C(=O)N(C)c4c(Br)cc(C)cc43)[C@H]2C)cc1 ; z-score = -0.0526

Please fill in: z-score reported for C=C(CCCC)C(=O)CC[C@H](OC(=O)c1cccnc1)c1ccccc1OCCO = -2.33

Data provenance: PubChem BioAssay
